test.system: pseudo-kinase domain (JH2, amino-acids 536-812) of human V617F mutant JAK2 (Homo sapiens, UniProt O60674, F794H/V617F/W659A/W777A)
Construct: pseudo-kinase domain (JH2, amino-acids 536-812 with 3 surface mutations W659A, W777A, F794H); His (C)
Sequence (O60674 536-812 V617F/W659A/W777A/F794H): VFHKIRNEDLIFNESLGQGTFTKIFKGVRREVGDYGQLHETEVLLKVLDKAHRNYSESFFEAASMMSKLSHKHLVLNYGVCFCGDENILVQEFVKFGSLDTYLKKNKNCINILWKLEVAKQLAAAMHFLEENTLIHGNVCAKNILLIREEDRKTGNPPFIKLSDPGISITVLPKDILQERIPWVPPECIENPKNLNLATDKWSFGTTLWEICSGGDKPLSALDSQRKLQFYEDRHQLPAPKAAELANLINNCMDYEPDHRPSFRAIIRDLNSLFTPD
test.protocol: JAK2 LanthaScreen JH2-V617F Binding Assay
condition.description: JAK2 JH2-V617F 0.26 nM, 50 nM tracer, 1 hour at 25° C.; read-out: JH2 BIND V617F
We begin with a simple list: items and their reported IC50.

Reference set, count: 2
structure.string	IC50
COC(=O)Nc1cc(Nc2cc3c(cn2)n(C)c(=O)n3[C@@H]2CC[C@@H](NC(=O)OC)C2)cc(-c2cnn(C)c2)c1	10 to 100 nM
[2H]C([2H])([2H])n1c(=O)n(C23CCC(NC(C)=O)(CC2)CC3)c2cc(Nc3cc(C(C)(C)O)cc(-c4ncc(C(F)(F)F)s4)n3)ncc21	≤ 10 nM

Field: next compound
Quick note, IC50 for COC(=O)N[C@@H]1CC[C@@H](n2c(=O)n(C)c3cnc(Nc4cc(NC(=O)C5CCC5)cc(C5CCOCC5)c4)cc32)C1 landed at ≤ 10 nM
